# ASSAY NAME: Cytotoxicity against human SJ-G2 cells at 100 uM after 72 hrs by MTT assay
# Assay type: functional
# CONDITION: SJ-G2, 72 h

[
  {
    "COMPOUND": "CCC(CO)N1C(=O)[C@H]2CSC[C@H]2C1=O (stereo partly drawn)",
    "inhibition at 100 µM": "< 10%"
  },
  {
    "COMPOUND": "NCCC[C@@H](C(=O)O)N1C(=O)[C@H]2COC[C@H]2C1=O",
    "inhibition at 100 µM": "32%"
  },
  {
    "COMPOUND": "NCCCC[C@@H](C(=O)O)N1C(=O)[C@H]2CSC[C@H]2C1=O",
    "inhibition at 100 µM": "10%"
  },
  {
    "COMPOUND": "CCC(CO)N1C(=O)[C@H]2COC[C@H]2C1=O (stereo partly drawn)",
    "inhibition at 100 µM": "< 10%"
  },
  {
    "COMPOUND": "NCCCC[C@@H](C(=O)O)N1C(=O)[C@H]2COC[C@H]2C1=O",
    "inhibition at 100 µM": "23%"
  },
  {
    "COMPOUND": "O=C(O)C[C@@H](C(=O)O)N1C(=O)[C@H]2COC[C@H]2C1=O",
    "inhibition at 100 µM": "< 10%"
  },
  {
    "COMPOUND": "NCCC[C@@H](C(=O)O)N1C(=O)[C@H]2CNC[C@H]2C1=O",
    "inhibition at 100 µM": "< 10%"
  },
  {
    "COMPOUND": "CC(CO)N1C(=O)[C@H]2COC[C@H]2C1=O (stereo partly drawn)",
    "inhibition at 100 µM": "< 10%"
  }
]

Data origin, for the record: ChEMBL document CHEMBL1157873
